Cited source for all entries: patent US12622878B2

Experiment: Particle size, PdI and zeta potential of mRNA-encapsulating LNPs by dynamic light scattering
Assay type: physicochemical
Details: FLuc mRNA-encapsulating LNP, cationic lipid:DOPC:Chol=55:5:40 + about 1 mol DMG-PEG2k; dynamic light scattering
Protocol: A 10 mM ethanol solution of cationic lipid, a 5 mM ethanol solution of DOPC, and a 10 mM ethanol solution of Chol were mixed at desired ratio (cationic lipid:DOPC:Chol=55:5:40 (molar ratio)) in an Eppendorf tube to achieve the total lipid amount of 720 nmol. […] The particle size, PdI (Polydispersity Index, Polydispersity), and zeta potential of the mRNA-encapsulating LNP prepared by the method of the above-mentioned 1 were measured by a dynamic light scattering method.
Mark MET for PdI under 0.1, NOT MET if at or over.

These recorded examples may help you get a feel for the data.
- CCCCCCCC/C=C\CCCCCCCC(=O)Oc1ccc(CC(=O)OCCOC(=O)C(CSSCC(NC(=O)CN2CCCCC2)C(=O)OCCOC(=O)Cc2ccc(OC(=O)CCCCCCC/C=C\CCCCCCCC)cc2)NC(=O)CN2CCCCC2)cc1 (stereo not drawn): MET
- CCCCCCCC/C=C\CCCCCCCC(=O)Oc1ccc(CC(=O)OCCOC(=O)C(CSSCC(NC(=O)CN(CCC)CCC)C(=O)OCCOC(=O)Cc2ccc(OC(=O)CCCCCCC/C=C\CCCCCCCC)cc2)NC(=O)CN(CCC)CCC)cc1 (stereo not drawn): NOT MET
- CCCCCCCC/C=C\CCCCCCCC(=O)Oc1ccc(CC(=O)OCCOC(=O)C(CSSCC(NC(=O)CN(CC)CC)C(=O)OCCOC(=O)Cc2ccc(OC(=O)CCCCCCC/C=C\CCCCCCCC)cc2)NC(=O)CN(CC)CC)cc1 (stereo not drawn): MET

Lab note: confirm whether the reported PdI for this molecule is below 0.1, equality not counting. molecule: CCCCCCCC/C=C\CCCCCCCC(=O)Oc1ccc(CC(=O)OCCOC(=O)C(CSSCC(NC(=O)CN(C)CC)C(=O)OCCOC(=O)Cc2ccc(OC(=O)CCCCCCC/C=C\CCCCCCCC)cc2)NC(=O)CN(C)CC)cc1 (stereo not drawn)
MET

Lab note: confirm whether the reported PdI for this molecule is below 0.1, equality not counting. molecule: CCCCCCCC/C=C\CCCCCCCC(=O)Oc1ccc(CC(=O)OCCOC(=O)C(CSSCC(NC(=O)CN(C)C)C(=O)OCCOC(=O)Cc2ccc(OC(=O)CCCCCCC/C=C\CCCCCCCC)cc2)NC(=O)CN(C)C)cc1 (stereo not drawn)
NOT MET
